In this section, each of the binders is paired with its reported pKd.
- systemTested: T1, human latent myostatin (human, UniProt O14793 25-266; O14793 267-375)
- T1 construct: non-covalent complex of two propeptides and the mature homodimer; also called human myostatin latent form
- T1 sequence 1: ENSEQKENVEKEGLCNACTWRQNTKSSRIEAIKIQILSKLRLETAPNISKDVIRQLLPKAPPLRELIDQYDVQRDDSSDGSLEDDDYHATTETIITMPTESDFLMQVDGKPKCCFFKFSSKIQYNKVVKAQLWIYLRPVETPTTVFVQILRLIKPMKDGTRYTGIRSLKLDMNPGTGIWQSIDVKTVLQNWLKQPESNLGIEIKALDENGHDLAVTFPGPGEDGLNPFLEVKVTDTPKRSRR
- T1 sequence 2: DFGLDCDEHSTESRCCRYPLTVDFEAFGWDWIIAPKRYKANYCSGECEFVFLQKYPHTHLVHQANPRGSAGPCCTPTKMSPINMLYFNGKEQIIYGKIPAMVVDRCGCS
- experimentSummary: SPR 37C pH7.4; pH 7.4
Please keep in mind that pKd is minus log10 of the molar concentration; only the number is needed.

# binder, reportedProperty, quantitativeResult
records = [
    ("MS_M103205H1047-SG1/M103202L889-SK1 (antibody, human IgG1, kappa, V domains shown, also called MS1032LO11-SG1) VH: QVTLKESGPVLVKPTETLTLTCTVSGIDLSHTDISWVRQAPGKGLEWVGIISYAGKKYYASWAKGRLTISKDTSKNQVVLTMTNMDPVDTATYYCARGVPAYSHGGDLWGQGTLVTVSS VL: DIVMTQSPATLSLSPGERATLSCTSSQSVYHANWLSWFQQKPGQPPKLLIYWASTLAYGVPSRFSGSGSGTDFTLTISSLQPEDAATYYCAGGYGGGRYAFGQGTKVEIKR", "pKd", 9.38),
    ("MS_M103245H1233-SG1/M103202L1045-SK1 (antibody, human IgG1, kappa, V domains shown, also called MS1032LO23-SG1) VH: QVTLKESGPVLVKPTETLTLTCKVSGIDLSHEDISWVRQAPGKGLEWVSIISYAGSTYYASWAKGRLTISKDTSKNQVVLTMTNMDPVDTATYYCARGVPAYSHGGDLWGQGTLVTVSS VL: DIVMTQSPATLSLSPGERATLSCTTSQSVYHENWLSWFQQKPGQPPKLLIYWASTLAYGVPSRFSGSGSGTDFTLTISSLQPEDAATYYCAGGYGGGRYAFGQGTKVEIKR", "pKd", 9.59),
    ("MS_M103245H795-SG1/M103202L1045-SK1 (antibody, human IgG1, kappa, V domains shown, also called MS1032LO21-SG1) VH: QVTLKESGPVLVKPTETLTLTCKVSGIDLSHDDISWVRQAPGKGLEWVSIISYAGSTYYASWAKGRLTISKDTSKNQVVLTMTNMDPVDTATYYCARGVPAYSHGGDLWGQGTLVTVSS VL: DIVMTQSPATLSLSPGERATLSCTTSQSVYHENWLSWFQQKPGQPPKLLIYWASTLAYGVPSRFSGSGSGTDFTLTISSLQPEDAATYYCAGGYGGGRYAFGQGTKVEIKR", "pKd", 9.59),
    ("MS_M103205H1057-SG1/M103202L889-SK1 (antibody, human IgG1, kappa, V domains shown, also called MS1032LO12-SG1) VH: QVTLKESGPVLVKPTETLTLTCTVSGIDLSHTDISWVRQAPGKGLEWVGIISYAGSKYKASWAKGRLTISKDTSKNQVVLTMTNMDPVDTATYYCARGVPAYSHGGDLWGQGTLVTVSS VL: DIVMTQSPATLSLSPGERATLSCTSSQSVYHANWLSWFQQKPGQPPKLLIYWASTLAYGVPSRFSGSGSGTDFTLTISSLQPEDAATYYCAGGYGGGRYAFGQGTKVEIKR", "pKd", 9.39),
]

Now look at this one.
binder MS_M103205H795-SG1/M103202L1060-SK1 (antibody, human IgG1, kappa, V domains shown, also called MS1032LO24-SG1) VH: QVTLKESGPVLVKPTETLTLTCTVSGIDLSHDDISWVRQAPGKGLEWVGIISYAGSTYYASWAKGRLTISKDTSKNQVVLTMTNMDPVDTATYYCARGVPAYSHGGDLWGQGTLVTVSS VL: DIVMTQSPATLSLSPGERATLSCTSSQSVFHENWLSWFQQKPGQPPKLLIYWASTLAWGVPSRFSGSGSGTDFTLTISSLQPEDAATYYCAGGYGGGRYAFGQGTKVEIKR , pKd observed: 9.79
